- system: cGMP-inhibited 3',5'-cyclic phosphodiesterase 3A (Homo sapiens); further: assay procedure not described here
- Sequence (Q14432 whole entry): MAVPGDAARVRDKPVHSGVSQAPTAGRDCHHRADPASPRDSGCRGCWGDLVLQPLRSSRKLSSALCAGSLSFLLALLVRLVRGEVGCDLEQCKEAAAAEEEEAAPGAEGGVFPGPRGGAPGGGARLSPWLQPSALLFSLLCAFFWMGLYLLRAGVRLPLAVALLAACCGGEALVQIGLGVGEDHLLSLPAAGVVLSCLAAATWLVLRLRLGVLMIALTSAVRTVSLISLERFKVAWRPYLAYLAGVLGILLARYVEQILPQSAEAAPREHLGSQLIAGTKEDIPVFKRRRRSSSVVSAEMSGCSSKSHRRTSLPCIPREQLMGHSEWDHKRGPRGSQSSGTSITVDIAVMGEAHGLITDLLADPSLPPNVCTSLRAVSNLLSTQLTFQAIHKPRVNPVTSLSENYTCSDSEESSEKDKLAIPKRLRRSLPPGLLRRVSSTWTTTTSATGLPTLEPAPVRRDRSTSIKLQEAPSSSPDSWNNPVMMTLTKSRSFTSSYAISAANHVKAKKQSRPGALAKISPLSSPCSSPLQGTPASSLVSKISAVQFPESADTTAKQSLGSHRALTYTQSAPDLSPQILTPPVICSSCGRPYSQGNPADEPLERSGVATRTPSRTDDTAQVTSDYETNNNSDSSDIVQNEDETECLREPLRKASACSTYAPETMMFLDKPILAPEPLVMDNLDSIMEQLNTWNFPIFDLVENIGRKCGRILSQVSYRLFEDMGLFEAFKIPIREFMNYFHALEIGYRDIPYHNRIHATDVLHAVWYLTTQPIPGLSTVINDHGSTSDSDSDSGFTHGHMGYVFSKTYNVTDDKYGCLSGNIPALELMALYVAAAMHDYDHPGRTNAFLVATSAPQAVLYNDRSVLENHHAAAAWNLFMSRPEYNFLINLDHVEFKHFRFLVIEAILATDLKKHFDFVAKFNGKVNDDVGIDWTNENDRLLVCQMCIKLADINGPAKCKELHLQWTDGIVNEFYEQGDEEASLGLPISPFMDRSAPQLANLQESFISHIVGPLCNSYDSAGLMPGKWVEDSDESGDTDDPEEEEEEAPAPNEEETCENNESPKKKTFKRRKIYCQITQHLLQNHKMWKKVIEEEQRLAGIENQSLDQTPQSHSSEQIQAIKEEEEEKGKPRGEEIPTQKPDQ
- Assay type: functional
Each item that follows carries a reported AC50.

Sample answers from the record:
COc1ccc2cccc(CCNC(C)=O)c2c1 [AGOMELATINE] = > 30 µM
CCOC(=O)[C@H](CCc1ccccc1)N[C@@H](C)C(=O)N1CCC[C@H]1C(=O)O = > 10 µM
O=C(CCCCC(=O)Nc1c(I)cc(I)c(C(=O)O)c1I)Nc1c(I)cc(I)c(C(=O)O)c1I [IODIPAMIDE] = > 30 µM
O=C(NC[C@H]1CN(c2ccc(N3CCOCC3=O)cc2)C(=O)O1)c1ccc(Cl)s1 [RIVAROXABAN] = > 30 µM
CC(C)NNC(=O)c1ccncc1 [IPRONIAZID] = > 30 µM

Input: I am curious: what AC50 value has been reported for CC(C)NCC(O)COc1ccc(COCCOC(C)C)cc1 (centres undefined) [BISOPROLOL] ?
Output: > 30 µM

Input: I am curious: what AC50 value has been reported for CN(C)C(=O)OC1N=C(c2ccccc2)c2cc(Cl)ccc2N(C)C1=O (centres undefined) [CAMAZEPAM] ?
Output: > 30 µM

Input: I am curious: what AC50 value has been reported for Cc1cc2c(OCC(CNC(C)(C)C)OC(=O)c3ccccc3)cccc2[nH]1 (centres undefined) [BOPINDOLOL] ?
Output: > 30 µM

Input: I am curious: what AC50 value has been reported for NS(=O)(=O)c1cc(-c2nnn[nH]2)c(NCc2cccs2)cc1Cl [AZOSEMIDE] ?
Output: 19 µM
